Origin of the recorded values: ChEMBL document CHEMBL5038598

Target: Leucine-rich repeat serine/threonine-protein kinase 2 (Mus musculus, UniProt Q5S006)
Sequence (Q5S006 whole entry): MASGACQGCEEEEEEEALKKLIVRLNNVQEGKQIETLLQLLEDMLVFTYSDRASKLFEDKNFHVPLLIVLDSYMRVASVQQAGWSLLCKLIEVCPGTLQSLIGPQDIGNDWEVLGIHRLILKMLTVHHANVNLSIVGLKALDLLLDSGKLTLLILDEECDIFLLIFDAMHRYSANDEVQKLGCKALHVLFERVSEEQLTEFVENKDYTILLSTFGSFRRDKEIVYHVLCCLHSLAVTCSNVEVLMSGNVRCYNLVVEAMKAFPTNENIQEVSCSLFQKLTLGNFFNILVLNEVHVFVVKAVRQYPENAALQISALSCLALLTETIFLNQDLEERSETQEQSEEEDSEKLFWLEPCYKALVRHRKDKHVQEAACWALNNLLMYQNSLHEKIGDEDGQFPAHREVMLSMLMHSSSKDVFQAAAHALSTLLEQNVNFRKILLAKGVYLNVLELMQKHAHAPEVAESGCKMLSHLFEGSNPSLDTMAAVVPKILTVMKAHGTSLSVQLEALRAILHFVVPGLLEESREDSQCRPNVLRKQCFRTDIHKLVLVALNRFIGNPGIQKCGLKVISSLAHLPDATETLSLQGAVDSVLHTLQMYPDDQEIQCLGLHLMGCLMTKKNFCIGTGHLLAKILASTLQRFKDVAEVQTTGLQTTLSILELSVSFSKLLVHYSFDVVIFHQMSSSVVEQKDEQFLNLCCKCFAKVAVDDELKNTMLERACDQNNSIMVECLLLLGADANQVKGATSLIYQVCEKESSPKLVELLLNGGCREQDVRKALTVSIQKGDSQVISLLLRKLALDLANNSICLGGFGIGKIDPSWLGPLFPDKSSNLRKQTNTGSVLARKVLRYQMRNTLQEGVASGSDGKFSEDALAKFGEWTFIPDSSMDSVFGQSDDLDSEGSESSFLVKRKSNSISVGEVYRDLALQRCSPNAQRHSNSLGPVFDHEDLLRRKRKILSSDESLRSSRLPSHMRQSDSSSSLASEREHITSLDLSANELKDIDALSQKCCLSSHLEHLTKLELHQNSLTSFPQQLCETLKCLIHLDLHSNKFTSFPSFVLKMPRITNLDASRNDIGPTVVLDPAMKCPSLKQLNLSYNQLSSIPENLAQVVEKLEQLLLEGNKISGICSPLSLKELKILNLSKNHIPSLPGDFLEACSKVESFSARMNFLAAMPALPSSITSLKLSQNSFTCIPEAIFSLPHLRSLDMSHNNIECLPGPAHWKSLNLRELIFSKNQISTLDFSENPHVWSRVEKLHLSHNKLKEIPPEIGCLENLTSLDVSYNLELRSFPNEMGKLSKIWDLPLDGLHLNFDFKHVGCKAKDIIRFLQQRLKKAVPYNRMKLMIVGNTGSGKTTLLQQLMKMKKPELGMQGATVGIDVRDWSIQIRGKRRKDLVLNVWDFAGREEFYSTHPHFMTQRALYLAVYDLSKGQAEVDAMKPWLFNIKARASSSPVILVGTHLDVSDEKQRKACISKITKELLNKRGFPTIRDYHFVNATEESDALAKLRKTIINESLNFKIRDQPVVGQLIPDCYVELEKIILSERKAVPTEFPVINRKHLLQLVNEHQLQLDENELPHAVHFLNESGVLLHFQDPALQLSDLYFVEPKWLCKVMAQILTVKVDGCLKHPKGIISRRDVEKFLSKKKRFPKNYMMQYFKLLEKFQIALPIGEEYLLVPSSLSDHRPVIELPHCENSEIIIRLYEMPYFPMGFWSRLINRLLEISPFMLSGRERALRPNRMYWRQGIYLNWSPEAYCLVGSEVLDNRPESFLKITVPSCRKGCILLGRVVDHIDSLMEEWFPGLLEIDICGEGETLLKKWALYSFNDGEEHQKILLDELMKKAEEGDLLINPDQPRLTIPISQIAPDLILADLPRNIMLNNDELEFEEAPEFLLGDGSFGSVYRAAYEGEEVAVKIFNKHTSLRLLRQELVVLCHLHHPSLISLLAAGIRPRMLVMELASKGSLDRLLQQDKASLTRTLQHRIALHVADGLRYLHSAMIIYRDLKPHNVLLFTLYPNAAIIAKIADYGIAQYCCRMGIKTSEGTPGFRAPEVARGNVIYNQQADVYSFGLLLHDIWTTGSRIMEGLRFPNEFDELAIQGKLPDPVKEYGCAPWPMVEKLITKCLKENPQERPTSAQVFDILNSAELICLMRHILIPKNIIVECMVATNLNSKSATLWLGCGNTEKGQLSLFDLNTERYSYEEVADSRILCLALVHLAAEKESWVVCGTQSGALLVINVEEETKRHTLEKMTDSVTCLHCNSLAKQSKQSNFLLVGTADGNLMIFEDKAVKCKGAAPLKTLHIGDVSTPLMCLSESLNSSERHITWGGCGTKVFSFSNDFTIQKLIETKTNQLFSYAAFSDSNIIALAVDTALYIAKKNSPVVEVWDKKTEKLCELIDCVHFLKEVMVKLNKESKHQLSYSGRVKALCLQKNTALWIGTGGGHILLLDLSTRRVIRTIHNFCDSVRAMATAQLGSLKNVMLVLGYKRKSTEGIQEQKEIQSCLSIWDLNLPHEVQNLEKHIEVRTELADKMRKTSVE
Experiment: Inhibition of LRRK2-WT in C57BL/6 mouse brain at 10 to 150 mg/kg and measured after 1 hrs by western blotting
Format: organism-based
Some compounds, each annotated with its measured IC50.
Answer with a number only, understood to be in nM.

>>> numeric_readout("Cc1c(Nc2nc(N)c3c(C#N)c(N4CCC[C@H]4C)n(C)c3n2)cnn1[C@@H]1CCOC1")
11

Q: Tell me its IC50 given Cc1c(Nc2nc(N)c3c(C#N)c(N4CCC[C@H]4C)n(C)c3n2)cnn1[C@H]1CCOC1 as the entry.
Result: 22

----------
Test: Ratio of drug level in Mdr1A deficient C57BL/6 mouse brain to plasma at 5 mg/kg, sc and measured after 1 hrs
Assay type: ADME, organism-based
Measure Name: Kp at 1 h
Reply: number alone, nothing else.

Q: Please list Kp at 1 h recorded for the molecule Cc1c(Nc2nc(N)c3c(C#N)c(N4CCC[C@H]4C)n(C)c3n2)cnn1[C@H]1CCOC1
Result: 0.15

----------
Test: Ratio of drug level in C57BL/6 WT mouse brain to plasma at 5 mg/kg, sc and measured after 0.5 hrs
Assay type: ADME, organism-based
Settings: C57BL/6, mouse, brain and plasma
Measure Name: Kp at 0.5 h

>>> result("Cc1c(Nc2nc(N)c3c(C#N)c(N4CCC[C@H]4C)n(C)c3n2)cnn1[C@H]1CCOC1")
0.15

Turning now to a further compound:
Q: Look up and state reported Kp at 0.5 h for Cc1c(Nc2nc(N)c3c(C#N)c(N4CCC[C@H]4C)n(C)c3n2)cnn1[C@@H]1CCOC1
Result: 0.06

----------
Target: Leucine-rich repeat serine/threonine-protein kinase 2 (Homo sapiens, UniProt Q5S007, G2019S)
Sequence (Q5S007 whole entry G2019S, the tested form may be a part): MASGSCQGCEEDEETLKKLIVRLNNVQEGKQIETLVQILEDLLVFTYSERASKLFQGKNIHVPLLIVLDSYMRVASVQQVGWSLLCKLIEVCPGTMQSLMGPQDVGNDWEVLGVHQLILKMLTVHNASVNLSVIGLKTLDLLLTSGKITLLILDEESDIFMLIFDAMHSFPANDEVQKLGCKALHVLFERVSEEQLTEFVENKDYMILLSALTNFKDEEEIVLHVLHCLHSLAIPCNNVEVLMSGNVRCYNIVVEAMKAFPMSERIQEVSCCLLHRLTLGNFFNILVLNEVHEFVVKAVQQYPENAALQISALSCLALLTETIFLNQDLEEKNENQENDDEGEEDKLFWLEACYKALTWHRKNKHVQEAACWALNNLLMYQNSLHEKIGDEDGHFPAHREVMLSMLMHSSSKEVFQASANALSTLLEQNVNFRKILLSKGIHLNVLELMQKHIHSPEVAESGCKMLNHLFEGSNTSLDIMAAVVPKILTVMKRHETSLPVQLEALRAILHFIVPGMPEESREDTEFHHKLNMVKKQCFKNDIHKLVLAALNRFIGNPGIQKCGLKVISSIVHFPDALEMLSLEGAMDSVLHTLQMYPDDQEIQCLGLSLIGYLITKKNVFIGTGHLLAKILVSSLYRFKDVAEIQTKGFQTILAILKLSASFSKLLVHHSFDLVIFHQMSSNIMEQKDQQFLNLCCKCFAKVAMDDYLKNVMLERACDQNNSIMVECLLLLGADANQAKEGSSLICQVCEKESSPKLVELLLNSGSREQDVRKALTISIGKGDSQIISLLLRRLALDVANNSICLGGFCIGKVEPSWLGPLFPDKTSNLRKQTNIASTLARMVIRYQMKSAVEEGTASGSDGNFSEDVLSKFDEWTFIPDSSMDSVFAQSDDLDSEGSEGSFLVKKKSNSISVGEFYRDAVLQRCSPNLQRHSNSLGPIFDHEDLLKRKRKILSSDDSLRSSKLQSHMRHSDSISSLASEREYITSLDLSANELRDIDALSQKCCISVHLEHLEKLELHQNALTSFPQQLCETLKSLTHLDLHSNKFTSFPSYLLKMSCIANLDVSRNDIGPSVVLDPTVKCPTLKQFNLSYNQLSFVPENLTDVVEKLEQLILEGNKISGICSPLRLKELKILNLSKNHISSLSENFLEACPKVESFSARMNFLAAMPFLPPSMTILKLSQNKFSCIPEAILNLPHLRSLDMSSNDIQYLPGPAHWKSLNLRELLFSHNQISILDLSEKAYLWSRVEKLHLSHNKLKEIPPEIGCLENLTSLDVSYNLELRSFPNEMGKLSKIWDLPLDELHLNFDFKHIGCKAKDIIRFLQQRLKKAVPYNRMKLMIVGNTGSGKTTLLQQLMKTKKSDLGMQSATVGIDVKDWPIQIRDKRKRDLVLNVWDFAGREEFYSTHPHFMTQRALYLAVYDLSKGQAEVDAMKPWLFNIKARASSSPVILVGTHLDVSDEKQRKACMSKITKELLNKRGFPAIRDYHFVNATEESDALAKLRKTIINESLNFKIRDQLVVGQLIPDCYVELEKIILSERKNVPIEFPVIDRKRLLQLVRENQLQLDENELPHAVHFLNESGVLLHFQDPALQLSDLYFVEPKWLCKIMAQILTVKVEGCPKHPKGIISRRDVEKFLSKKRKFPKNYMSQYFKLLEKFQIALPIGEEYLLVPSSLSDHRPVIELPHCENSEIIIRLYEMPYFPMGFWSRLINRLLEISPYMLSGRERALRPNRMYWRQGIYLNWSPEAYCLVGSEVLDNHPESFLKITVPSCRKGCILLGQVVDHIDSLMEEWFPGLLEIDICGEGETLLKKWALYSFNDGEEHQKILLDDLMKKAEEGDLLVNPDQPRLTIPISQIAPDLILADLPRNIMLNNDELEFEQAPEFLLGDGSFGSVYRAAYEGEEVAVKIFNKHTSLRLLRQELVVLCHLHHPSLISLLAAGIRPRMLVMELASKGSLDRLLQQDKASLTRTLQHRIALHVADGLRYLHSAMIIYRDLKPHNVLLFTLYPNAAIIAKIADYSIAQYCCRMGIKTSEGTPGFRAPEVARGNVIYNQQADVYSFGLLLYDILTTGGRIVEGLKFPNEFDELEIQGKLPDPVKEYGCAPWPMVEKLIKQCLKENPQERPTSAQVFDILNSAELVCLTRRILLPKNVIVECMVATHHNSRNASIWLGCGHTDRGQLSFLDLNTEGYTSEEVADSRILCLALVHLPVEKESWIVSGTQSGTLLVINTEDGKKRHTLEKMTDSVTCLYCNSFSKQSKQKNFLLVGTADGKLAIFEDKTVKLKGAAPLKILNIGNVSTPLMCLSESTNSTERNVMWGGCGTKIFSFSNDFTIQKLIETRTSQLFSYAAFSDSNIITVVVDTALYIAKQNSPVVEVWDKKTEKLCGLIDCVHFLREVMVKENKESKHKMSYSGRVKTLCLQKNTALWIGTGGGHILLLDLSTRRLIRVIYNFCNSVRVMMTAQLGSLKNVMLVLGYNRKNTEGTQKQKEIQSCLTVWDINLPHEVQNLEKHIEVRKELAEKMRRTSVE
Assay: Inhibition of recombinant human GST tagged truncated LRRK2 G2019S mutant using fluorescein-labeled LRRKtide as substrate in presence of ATP preincubated for 50 mins followed by anti-phospho-LRRKtide antibody addition and measured after 30 mins by TR-FRET based Lanthascreen kinase activity assay
Measure Name: pIC50
The quantity pIC50 is defined as the negative base-10 logarithm of the molar concentration.

Solved entries:
>>> numeric_readout("Cn1c(-c2ccccc2)c(C#N)c2c(N)ncnc21")
6.32
>>> numeric_readout("C[C@@H]1CCCN1c1cc2c(N)ncnc2n1C")
5.19
>>> numeric_readout("Cc1n[nH]cc1Nc1nc(N)c2c(C#N)c(N3CCC[C@H]3C)n(C)c2n1")
7.57

Lab note: next compound to report on.
Q: Specify measured pIC50 for C[C@@H]1CCCN1c1c(C#N)c2c(N)nc(Nc3ccn(C)n3)cc2n1C .
Result: 6.69

----------
Target: Leucine-rich repeat serine/threonine-protein kinase 2 (Homo sapiens, UniProt Q5S007)
Assay: Inhibition of recombinant human LRRK2 WT using fluorescein-labeled LRRKtide as substrate in presence of ATP preincubated for 50 mins followed by anti-phospho-LRRKtide antibody addition and measured after 30 mins by TR-FRET based Lanthascreen kinase activity assay
Category | rule: reported IC50 within range, see low (below 50 nM), moderate (50 nM to below 3000 nM), high (3000 nM or more)

>>> qualitative_label("Cc1nn(C2COC2)cc1Nc1nc(N)c2c(C#N)c(N3CCC[C@H]3C)n(C)c2n1")
"low"
>>> qualitative_label("C[C@H]1CCCN1c1c(C#N)c2c(N)ncnc2n1C")
"high"
>>> qualitative_label("Cc1nn(CC2(O)COC2)cc1Nc1nc(N)c2c(C#N)c(N3CCC[C@H]3C)n(C)c2n1")
"moderate"
>>> qualitative_label("C[C@@H]1CCCN1c1c(C#N)c2c(N)nc(Nc3cn(C)nc3C(F)(F)F)nc2n1C")
"moderate"
>>> qualitative_label("CN(C)c1c(C#N)c2c(N)ncnc2n1C")
"high"
>>> qualitative_label("Cc1cn(C)nc1Nc1cc2c(c(N)n1)c(C#N)c(N1CCC[C@H]1C)n2C")
"moderate"

Q: Sort into band: Cc1nn(C)cc1Nc1nc(N)c2c(C#N)c(N3CCC[C@H]3C)n(C)c2n1
Result: low

Q: Which category fits this record: C[C@@H]1CCCN1c1c(C(N)=O)c2c(N)ncnc2n1C
Result: high

Q: Record Cc1c(Nc2nc(N)c3c(C#N)c(N4CCC[C@H]4C)n(C)c3n2)cnn1C1COC1 — which class?
Result: low

Q: Class label required: C[C@@H]1CCCN1c1c(C#N)c2c(N)nc(Nc3cn(C)nc3Cl)nc2n1C
Result: low

Q: Looking at Cn1c(N)c(C#N)c2c(N)ncnc21 , which class would you pick?
Result: high

----------
Listed here are molecules together with their documented bioavailability.
Assay: Oral bioavailability in Beagle dog plasma at 2 mg/kg relative to liver blood flow
Type: ADME, organism-based, Canis lupus familiaris
Field: value (include unit after the number)

>>> result("Cc1c(Nc2nc(N)c3c(C#N)c(N4CCC[C@H]4C)n(C)c3n2)cnn1[C@H]1CCOC1")
"96%"

Q: State its bioavailability for this molecule: Cc1c(Nc2nc(N)c3c(C#N)c(N4CCC[C@H]4C)n(C)c3n2)cnn1[C@@H]1CCOC1
Result: 25%

----------
Molecular target: Leucine-rich repeat serine/threonine-protein kinase 2 (Homo sapiens, UniProt Q5S007)
pKi: −log10 of the molar value.
Threshold rule: pKi greater than or equal to 7 is met; below that, not met.

// below: answered molecules
>>> qualitative_label("C[C@@H]1CCCN1c1c(C#N)c2c(N)nc(Nc3cn[nH]c3)nc2n1C")
"met"
>>> qualitative_label("C[C@@H]1CCCN1c1c(C#N)c2c(N)nccc2n1C")
"met"
>>> qualitative_label("C[C@@H]1CCCN1c1c(C#N)c2c(N)nc(Nc3ccn(C)n3)cc2n1C")
"met"

Q: Hello, I need to know if Cn1c(NCc2ccccc2)c(C#N)c2c(N)ncnc21 has measured pKi not below 7. Thanks!
Result: not met

Q: Determine whether measured pKi meets or exceeds 7 for Cn1c(N)c(C#N)c2c(N)ncnc21
Result: not met

----------
Experiment: Drug uptake in Mdr1a deficient C57BL/6 mouse brain at 5 mg/kg, sc and measured after 1 hrs
Type: ADME, organism-based
Settings: read-out: Drug uptake
Measure Name: concentration at 1 h (ng/g)
Use ng/g as the unit, but write only the number.

Q: Provide only the value of recorded concentration at 1 h for Cc1c(Nc2nc(N)c3c(C#N)c(N4CCC[C@H]4C)n(C)c3n2)cnn1[C@H]1CCOC1
Result: 675

----------
Assay: Drug uptake in C57BL/6 WT mouse plasma at 5 mg/kg, sc and measured after 0.5 hrs
Assay type: ADME, organism-based
Details: C57BL/6, mouse
Measure Name: concentration at 0.5 h (ng/mL)
Provide the reading as a plain figure in ng/mL.

Q: Look up concentration at 0.5 h of Cc1c(Nc2nc(N)c3c(C#N)c(N4CCC[C@H]4C)n(C)c3n2)cnn1[C@H]1CCOC1 and report it.
Result: 1610

----------
Test: Half life in Sprague-Dawley rat plasma at 1 mg/kg, IV […]
Format: ADME, organism-based
Reported half-life values for a set of molecules
Answer with a number only, understood to be in min.

>>> numeric_readout("Cc1c(Nc2nc(N)c3c(C#N)c(N4CCC[C@H]4C)n(C)c3n2)cnn1[C@H]1CCOC1")
12

Q: Answer with reported half-life of Cc1c(Nc2nc(N)c3c(C#N)c(N4CCC[C@H]4C)n(C)c3n2)cnn1[C@@H]1CCOC1
Result: 6

----------
Assay: Volume of distribution in steady state in Sprague-Dawley rat plasma at 1 mg/kg, IV […]
Format: ADME, organism-based
Conditions: read-out: Vdss
Some compounds, each annotated with its measured Vd.
Use L/kg as the unit, but write only the number.

>>> numeric_readout("Cc1c(Nc2nc(N)c3c(C#N)c(N4CCC[C@H]4C)n(C)c3n2)cnn1[C@H]1CCOC1")
1.1

Q: Annotate the compound Cc1c(Nc2nc(N)c3c(C#N)c(N4CCC[C@H]4C)n(C)c3n2)cnn1[C@@H]1CCOC1 with its measured Vd.
Result: 1.7

----------
# IC50 listing for each entry below
Target: Leucine-rich repeat serine/threonine-protein kinase 2 (Homo sapiens, UniProt Q5S007, G2019S)
Test: Inhibition of LRRK2-pSer935 in LRRK2 G2019S mutant expressing human HEK293 cells and measured after 48 hrs by ICW assay
Assay type: cell-based
Give just the numeric value; µM need not be written.

>>> numeric_readout("Cc1c(Nc2nc(N)c3c(C#N)c(N4CCC[C@H]4C)n(C)c3n2)cnn1[C@@H]1CCOC1")
0.08
>>> numeric_readout("Cc1nn(C)cc1Nc1nc(N)c2c(C#N)c(N3CCC[C@H]3C)n(C)c2n1")
0.12
>>> numeric_readout("Cc1nn(CC2(O)COC2)cc1Nc1nc(N)c2c(C#N)c(N3CCC[C@H]3C)n(C)c2n1")
0.25

Q: For the compound Cc1c(Nc2nc(N)c3c(C#N)c(N4CCC[C@H]4C)n(C)c3n2)cnn1CC1(O)COC1 , give its measured IC50 value.
Result: 0.12

Q: State, in one line, measured IC50 of Cc1c(Nc2nc(N)c3c(C#N)c(N4CCC[C@H]4C)n(C)c3n2)cnn1C1COC1
Result: 0.19

Q: Name the recorded IC50 of the item Cc1nn(C2CCOC2)cc1Nc1nc(N)c2c(C#N)c(N3CCC[C@H]3C)n(C)c2n1 (single isomer, unassigned) in your answer.
Result: 0.18

Q: Kindly indicate its recorded IC50. Item: Cc1nn(CC(C)(C)O)cc1Nc1nc(N)c2c(C#N)c(N3CCC[C@H]3C)n(C)c2n1
Result: 0.18

Q: Specify measured IC50 for Cc1nn(C2CCOC2)cc1Nc1nc(N)c2c(C#N)c(N3CCC[C@H]3C)n(C)c2n1 (mixture of isomers) .
Result: 0.065

Q: Kindly indicate its recorded IC50. Item: Cc1c(Nc2nc(N)c3c(C#N)c(N4CCC[C@H]4C)n(C)c3n2)cnn1[C@H]1CCOC1
Result: 0.051

Q: Identify measured IC50 associated with C[C@@H]1CCCN1c1c(C#N)c2c(N)nc(Nc3cn(C)nc3Cl)nc2n1C
Result: 0.054

Q: # return recorded IC50 for entry Cc1c(Nc2nc(N)c3c(C#N)c(N4CCC[C@H]4C)n(C)c3n2)cnn1CC(C)(C)O
Result: 0.12
